Where do these numbers come from? They come from ChEMBL document CHEMBL3885861.

species on record: Rattus norvegicus; assay: Open TG-GATES - Regimen: Single; type: toxicity, organism-based, Sprague-Dawley; design: regimen Single, gender Male, age 6 weeks; conditions: in vivo, po, 300 mg/kg, 3 h, tissue Plasma, route gavage, dose level Middle
measurement-name: ALT (IU/L)

molecule	experimental-value
Clc1ccccc1CN1CCc2sccc2C1	36.2
O=C(O)c1cc(/N=N/c2ccc(S(=O)(=O)Nc3ccccn3)cc2)ccc1O	36.6
C[C@H](CS)C(=O)N1CCC[C@H]1C(=O)O	33.4
CCc1cc(C(N)=S)ccn1 [ETHIONAMIDE]	30.2

###

// values below are reported BUN
species: Rattus norvegicus; test: Open TG-GATES - Regimen: Single; type: toxicity, organism-based, Sprague-Dawley; design: regimen Single, gender Male, age 6 weeks; settings: in vivo, po, 100 mg/kg, 3 h, tissue Plasma, route gavage, dose level Low
measurement-name: BUN (mg/dL)

compound	experimental-value
C[C@H](CS)C(=O)N1CCC[C@H]1C(=O)O	13.8
CCc1cc(C(N)=S)ccn1 [ETHIONAMIDE]	15
O=C(O)c1cn(C2CC2)c2cc(N3CCNCC3)c(F)cc2c1=O	12.4
O=C(O)c1cc(/N=N/c2ccc(S(=O)(=O)Nc3ccccn3)cc2)ccc1O	11
